Entry source: patent US20250333496A1

Parameter: IC50 (nM) mean, STAT3-luc reporter gene assay. Scope: all listed entries.
target: human IL-6 (mature hIL-6) (human, UniProt P05231 30-212); test: cell-based or functional assay
Sequence (P05231 30-212): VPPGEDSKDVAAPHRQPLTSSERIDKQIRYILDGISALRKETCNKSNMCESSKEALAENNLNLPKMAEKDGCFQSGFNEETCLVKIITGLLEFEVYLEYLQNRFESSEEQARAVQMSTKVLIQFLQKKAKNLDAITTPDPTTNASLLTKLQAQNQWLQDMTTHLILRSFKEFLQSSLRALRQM
Your answer is read as nM, so omit the unit and give the number.

# binder, numeric_value
measured = [
    ("Polypeptide_29 (VHH, VHH_1.6 with C-terminal His tag extension E1; also called [VHH_1.6]-E1) VHH: EVQLVESGGGLVQPGGSLKLSCTTSGRRFSEYAVGWFRQAPGKEREFVADIGEQAENTWYAESVLGRFTISRDDAKNTVYLEMDGLKPEDTAVYYCAADKYGVGGNAQGYYDSWGQGTQVTVSS", 0.039),
    ("Compound 19 (VHH, Chem. 27 (C20 fatty acid substituent) on Cys in position 4 and on Cys in position 6 of the extension (SEQ ID NO: 162)) VHH: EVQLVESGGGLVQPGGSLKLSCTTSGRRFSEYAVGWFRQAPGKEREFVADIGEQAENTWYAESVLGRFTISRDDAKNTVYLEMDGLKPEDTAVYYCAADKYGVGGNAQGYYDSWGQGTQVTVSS", 0.042),
]

**Query** Look up IC50 (nM) mean, STAT3-luc reporter gene assay: Compound 16 (VHH, Chem. 27 (C20 fatty acid substituent) on Cys in position 4 of the extension (SEQ ID NO: 161)) VHH: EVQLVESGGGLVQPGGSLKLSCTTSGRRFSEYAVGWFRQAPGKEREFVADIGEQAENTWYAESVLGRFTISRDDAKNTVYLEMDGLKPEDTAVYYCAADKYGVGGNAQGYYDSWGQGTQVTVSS
**Result** 0.054
